B1: FCHO1 (parent)
chain: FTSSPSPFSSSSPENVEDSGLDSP

Variants of: B1
Experiment: protein stability index of a GFP-peptide fusion (GPS, HEK-293T) (PSI 1-6); higher = more stable;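 further: lentivirally expressed fusions sorted by FACS into six bins by GFP to DsRed ratio, PSI derived from sequencing read proportions per bin multiplied by bin number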
Details: c terminus: a fixed tail appended
result.type: protein stability index
Form rule: numeric answer, no unit written next to it.

Please review the following examples before continuing.
Field protein stability index (entry D22R ) reads 2.04

Field protein stability index (entry S10G ) reads 2.02

Field protein stability index (entry E14H ) reads 1.95

Field protein stability index (entry G20D ) reads 1.88

New cases:
Field protein stability index (entry L21E ) reads 1.95

Field protein stability index (entry T2A ) reads 2.26

Field protein stability index (entry P7Q ) reads 1.86

Field protein stability index (entry S4C ) reads 2.35

Field protein stability index (entry S9D ) reads 2.67

Field protein stability index (entry S23N ) reads 1.78

Field protein stability index (entry E17C ) reads 1.68

Field protein stability index (entry S23G ) reads 1.81

Field protein stability index (entry S11G ) reads 1.33

Field protein stability index (entry F8M ) reads 4.53

Field protein stability index (entry S19R ) reads 2.39

Field protein stability index (entry S19W ) reads 1.57

Field protein stability index (entry P7I ) reads 1.74

Field protein stability index (entry S4W ) reads 3.58

Where do these numbers come from? They come from the supplement of paper PMC10567573.
